# Activity per entry
Test: Toxicity in C57Bl/6 mouse assessed as average body weight at 100 mg/kg, ip and measured immediately (reference value: 26.3 +/- 2.4 g)
Format: organism-based
Details: in vivo
endpoint-label: Activity (g)

compound="COc1ccccc1OCC(O)CN1CCN(CCO)CC1 (stereo not given)" endpoint_label=Activity units_symbol=g endpoint_result=27.9
compound="COc1cc([N+](=O)[O-])ccc1OCC(O)CN1CCN(CCO)CC1 (stereo not given)" endpoint_label=Activity units_symbol=g endpoint_result=27.8
compound="Cc1ccccc1OCC(O)CN1CCN(CCO)CC1 (stereo not given)" endpoint_label=Activity units_symbol=g endpoint_result=26.2
compound="COc1cccc(OC)c1OCC(O)CN1CCN(CCO)CC1 (stereo not given)" endpoint_label=Activity units_symbol=g endpoint_result=27
compound="C=CCc1ccc(OCC(O)CN2CCN(CCO)CC2)c(OC)c1 (stereo not given)" endpoint_label=Activity units_symbol=g endpoint_result=25.7

All values here come from ChEMBL document CHEMBL4706495.
